Listing of recorded log10 EC50 of muraglitazar for recruitment by entry.
SYSTEM_NAME: T1, GST–PPARα fusion protein (purified ligand binding domain of PPARα)
T1 sequence (Q07869 whole entry, species assumed, looked up): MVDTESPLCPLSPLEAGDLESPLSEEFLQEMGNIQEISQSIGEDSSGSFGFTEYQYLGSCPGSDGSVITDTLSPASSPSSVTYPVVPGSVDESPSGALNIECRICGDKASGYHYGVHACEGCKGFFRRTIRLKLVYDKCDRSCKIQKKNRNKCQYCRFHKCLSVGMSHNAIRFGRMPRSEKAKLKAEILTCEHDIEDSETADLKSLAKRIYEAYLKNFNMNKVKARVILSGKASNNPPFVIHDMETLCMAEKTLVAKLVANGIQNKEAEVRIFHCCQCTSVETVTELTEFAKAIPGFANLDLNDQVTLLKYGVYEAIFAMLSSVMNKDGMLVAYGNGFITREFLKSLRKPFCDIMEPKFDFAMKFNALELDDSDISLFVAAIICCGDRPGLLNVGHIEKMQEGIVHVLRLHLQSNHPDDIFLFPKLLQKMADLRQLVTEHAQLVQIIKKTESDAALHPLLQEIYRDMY
ASSAY: FRET or BRET; homogeneous TR-FRET as a1, 12-concentration dose–response of muraglitazar; the EC50 is of the compound; delta ratio in % of the reference compound at 10 μM (RO4899100 for PPARα, edaglitazone for PPARγ)
Where no end group is shown, it is not given here. The star is where a group is joined. Biotin = O=C1N[C@H]2[C@H](CS[C@H]2CCCCC(=O)*)N1; Ahx = NCCCCCC(=O)O
Log10 applied to EC50 of muraglitazar for recruitment; unit prior to transform: nM.

{"BINDER": "{Biotin-Ahx}-SPKKKENALLRYLLDKDDTK [TIF2_M3 cofactor peptide (transcriptional intermediary factor 2, motif 3)]", "RECORDED_RESULT": 1.95}
{"BINDER": "{Biotin-Ahx}-SRLHDSKGQTKLLQLLTTKSD (transcriptional intermediary factor 2 (TIF2), motif 1, residues 630-650; source: synthetic peptide (Jerini or Biosynthan, Berlin)) [TIF2_M1 cofactor peptide (transcriptional intermediary factor 2, motif 1)]", "RECORDED_RESULT": 1.98}
{"BINDER": "{Biotin-Ahx}-PKKENNALLRYLLDRDDPSDV (source: synthetic peptide (Jerini or Biosynthan, Berlin)) [RAC3_M3 cofactor peptide (receptor-associated co-activator 3, motif 3)]", "RECORDED_RESULT": 2.52}

Would you kindly share the measured log10 EC50 of muraglitazar for recruitment for {Biotin-Ahx}-STHGTSLKEKHKILHRLLQDS [TIF2_M2 cofactor peptide (transcriptional intermediary factor 2, motif 2)] ? 1.53

Same again, this time with {Biotin-Ahx}-DSKYSQTSHKLVQLLTTTAEQQLRH (source: synthetic peptide (Jerini or Biosynthan, Berlin)) [SRC1_M1 cofactor peptide (steroid receptor co-activator 1, motif 1)] 2.27

Same again, this time with {Biotin-Ahx}-LDASKKKESKDHQLLRYLLDKDEKD (source: synthetic peptide (Jerini or Biosynthan, Berlin)) [SRC1_M3 cofactor peptide (steroid receptor co-activator 1, motif 3)] 0.92
